Data provenance: PubChem BioAssay (NCI)

So I've got a bunch of compounds here, and I need their TGI values.
- Test system: RPMI-8226 leukemia
- ASSAY PROTOCOL: NCI tumour cell line growth inhibition, 48 h

Query :: Output TGI of Nc1nccc(C#Cc2cncnc2Nc2ccc(OCc3cccc(F)c3)c(Cl)c2)n1
Result :: 16.9 µM

Query :: Output TGI of COc1cc(O)c2c(=O)cc(C3(OC(C)=O)C=CC(OC4OC(CO)C(O)C(O)C4O)C=C3)oc2c1 (centres undefined)
Result :: > 100 µM

Query :: Output TGI of C=C1CCC2C3(C)COC(c4cccc(Cl)c4)OC3CCC2(C)C1/C=C/C1=CCOC1=O (centres undefined)
Result :: > 100 µM

Query :: Output TGI of CC(C)c1cccc(C(C)C)c1NC(=S)Nc1ccccc1
Result :: > 100 µM
